Just for reference, patent US20120135912A1 is where these values come from.

- System: T1, human VLA4-Fc (alpha4-Fc/beta1-Fc heterodimer) (human)
- T1 construct: Soluble heterodimer from CHO cells, Protein A purified; also called VLA-Fc
- T1 sequence (chain, as listed by the source limits assumed, form in doubt, chain 1 of 2): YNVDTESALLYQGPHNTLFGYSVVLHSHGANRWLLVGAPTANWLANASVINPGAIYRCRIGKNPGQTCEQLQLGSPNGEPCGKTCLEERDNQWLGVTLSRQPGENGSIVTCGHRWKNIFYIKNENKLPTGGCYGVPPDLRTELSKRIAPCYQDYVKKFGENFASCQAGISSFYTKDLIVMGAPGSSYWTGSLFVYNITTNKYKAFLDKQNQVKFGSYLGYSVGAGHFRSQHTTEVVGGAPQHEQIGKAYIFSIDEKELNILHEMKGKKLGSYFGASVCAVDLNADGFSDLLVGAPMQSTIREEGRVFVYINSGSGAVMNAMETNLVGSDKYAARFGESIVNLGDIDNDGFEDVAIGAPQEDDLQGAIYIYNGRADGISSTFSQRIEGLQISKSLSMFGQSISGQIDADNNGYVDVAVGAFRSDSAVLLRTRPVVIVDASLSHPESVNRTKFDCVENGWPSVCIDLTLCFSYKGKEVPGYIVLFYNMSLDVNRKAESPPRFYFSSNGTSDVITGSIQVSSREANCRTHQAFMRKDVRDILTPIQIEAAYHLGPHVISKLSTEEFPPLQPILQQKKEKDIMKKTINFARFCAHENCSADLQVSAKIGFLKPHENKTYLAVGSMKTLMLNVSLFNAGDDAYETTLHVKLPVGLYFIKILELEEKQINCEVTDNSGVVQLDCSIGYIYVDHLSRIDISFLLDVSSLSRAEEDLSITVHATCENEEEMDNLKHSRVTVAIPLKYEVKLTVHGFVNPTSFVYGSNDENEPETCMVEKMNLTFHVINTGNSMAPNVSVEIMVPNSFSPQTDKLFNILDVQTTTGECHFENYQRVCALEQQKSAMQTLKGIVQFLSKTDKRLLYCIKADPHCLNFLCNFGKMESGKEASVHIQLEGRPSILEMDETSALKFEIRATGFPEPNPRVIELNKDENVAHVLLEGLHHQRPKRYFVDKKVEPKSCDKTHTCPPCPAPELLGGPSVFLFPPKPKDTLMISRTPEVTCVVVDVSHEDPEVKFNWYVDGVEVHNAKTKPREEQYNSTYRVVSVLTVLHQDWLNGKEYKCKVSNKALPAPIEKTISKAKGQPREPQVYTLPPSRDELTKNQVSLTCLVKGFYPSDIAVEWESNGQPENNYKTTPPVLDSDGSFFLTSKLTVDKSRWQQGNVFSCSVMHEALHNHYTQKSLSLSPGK
- T1 sequence (chain, as listed by the source limits assumed, form in doubt, chain 2 of 2): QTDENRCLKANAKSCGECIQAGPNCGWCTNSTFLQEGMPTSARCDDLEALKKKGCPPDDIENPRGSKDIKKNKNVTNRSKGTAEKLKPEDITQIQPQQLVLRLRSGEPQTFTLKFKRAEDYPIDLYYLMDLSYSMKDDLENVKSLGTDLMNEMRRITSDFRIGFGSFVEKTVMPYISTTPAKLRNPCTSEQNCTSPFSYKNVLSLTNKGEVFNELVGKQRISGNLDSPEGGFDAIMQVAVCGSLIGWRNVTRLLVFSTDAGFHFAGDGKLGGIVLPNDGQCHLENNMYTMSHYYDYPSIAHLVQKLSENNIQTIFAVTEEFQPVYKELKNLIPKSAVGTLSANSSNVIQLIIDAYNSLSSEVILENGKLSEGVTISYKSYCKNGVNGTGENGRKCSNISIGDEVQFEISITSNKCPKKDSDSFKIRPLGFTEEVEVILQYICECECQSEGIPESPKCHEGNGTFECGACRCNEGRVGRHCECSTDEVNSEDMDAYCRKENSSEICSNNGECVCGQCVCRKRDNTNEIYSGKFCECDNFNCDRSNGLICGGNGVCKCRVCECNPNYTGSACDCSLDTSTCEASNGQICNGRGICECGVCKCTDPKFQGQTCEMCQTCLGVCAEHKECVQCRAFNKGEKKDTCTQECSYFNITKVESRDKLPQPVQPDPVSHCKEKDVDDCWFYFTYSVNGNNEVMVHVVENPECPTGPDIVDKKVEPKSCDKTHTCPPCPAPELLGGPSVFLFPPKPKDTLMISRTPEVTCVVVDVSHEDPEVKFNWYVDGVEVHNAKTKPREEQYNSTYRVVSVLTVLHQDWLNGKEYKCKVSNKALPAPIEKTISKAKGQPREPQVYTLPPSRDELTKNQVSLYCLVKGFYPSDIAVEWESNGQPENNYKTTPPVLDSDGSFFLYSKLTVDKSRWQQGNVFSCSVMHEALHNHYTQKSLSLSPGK
- Experimental details: SPR (BIACORE), crude CHO-S supernatant on VLA4-Fc
Record form. Attribute: fold weaker binding relative to 146R0 (KD(variant)/KD(146R0)). Fill in for each entry.
One number for each entry, in fold.

Reference set, count: 4
[[record]]
binder = "146R12 (ligand, Crude CHO-S supernatant, 3x spacer-FLAG tagged) FKIETTPESRYLAQIGDSVSLTCSTTGCESPFFSWRPLLDSPLNGKVTNEGTTSTLTMNPVSFGNEHSYLCTATCESRKLEKGIQVEIYSFPKDPEIHLSGPLEAGKPITVKCSVADVYPFDRLEIDLLKGDHLMKSQEFLEDADRKSLETKSLEVTFTPVIEDIGKVLVCRAKLHIDEMDSVPTVRQAVKELQVYISPGGGSDYKDDDDKGGGSDYKDDDDKGGGSDYKDDDDKGS"
reported_value = 21.7

[[record]]
binder = "146R15 (ligand, Crude CHO-S supernatant, 3x spacer-FLAG tagged) FKIETTPESRYLAQIGDSVSLTCSTTGCESPFFFWRPQLDSPLNGKVTNEGTTSTLTMNPVSFGNEHSYLCTARCESRKLEKGIQVEIYSFPKDPEIHLSGPLEAGKPITVKCSVADVYPFDRLEIDLLKGDHLMKSQEFLEDADRKSLETKSLEVTFTPVIEDIGKVLVCRAKLHIDEMDSVPTVRQAVKELQVYISPGGGSDYKDDDDKGGGSDYKDDDDKGGGSDYKDDDDKGS"
reported_value = 5.3

[[record]]
binder = "146R7 (ligand, Crude CHO-S supernatant, 3x spacer-FLAG tagged) FKIETTPESRYLAQIGDSVSLTCSTTGCESPLFFWRPLLDSPLNGKVTNEGTTSTLTMNPVSFGNEHSYLCTARCESRKLEKGIQVEIYSFPKDPEIHLSGPLEAGKPITVKCSVADVYPFDRLEIDLLKGDHLMKSQEFLEDADRKSLETKSLEVTFTPVIEDIGKVLVCRAKLHIDEMDSVPTVRQAVKELQVYISPGGGSDYKDDDDKGGGSDYKDDDDKGGGSDYKDDDDKGS"
reported_value = 1

[[record]]
binder = "146R22 (ligand, Crude CHO-S supernatant, 3x spacer-FLAG tagged) FKIETTPESRYLAQIGDSVSLTCSTTGCESPLFFWRTLLDSPLNGKVTNEGTTSTLTMNPVSFGNEHSYLCTARCESRKLEKGIQVEIYSFPKDPEIHLSGPLEAGKPITVKCSVADVYPFDRLEIDLLKGDHLMKSQEFLEDADRKSLETKSLEVTFTPVIEDIGKVLVCRAKLHIDEMDSVPTVRQAVKELQVYISPGGGSDYKDDDDKGGGSDYKDDDDKGGGSDYKDDDDKGS"
reported_value = 1.6


Items follow; give fold weaker binding relative to 146R0 (KD(variant)/KD(146R0)) for each.
1. 146R5 (ligand, Crude CHO-S supernatant, 3x spacer-FLAG tagged) FKIETTPESRYLAQIGDSVSLTCSTTGCESPLFFWRPLIDSPLNGKVTNEGTTSTLTMNPVSFGNEHSYLCTARCESRSLEKGIQVEIYSFPKDPEIHLSGPLEAGKPITVKCSVADVYPFDRLEIDLLKGDHLMKSQEFLEDADRKSLETKSLEVTFTPVIEDIGKVLVCRAKLHIDEMDSVPTVRQAVKELQVYISPGGGSDYKDDDDKGGGSDYKDDDDKGGGSDYKDDDDKGS
2. 146R0 (Clone 146 with three spacer-FLAG tags, CHO-S supernatant) (ligand, assayed as concentrated, filtered crude supernatant) FKIETTPESRYLAQIGDSVSLTCSTTGCESPLFFWRPLLDSPLNGKVTNEGTTSTLTMNPVSFGNEHSYLCTARCESRSLEKGIQVEIYSFPKDPEIHLSGPLEAGKPITVKCSVADVYPFDRLEIDLLKGDHLMKSQEFLEDADRKSLETKSLEVTFTPVIEDIGKVLVCRAKLHIDEMDSVPTVRQAVKELQVYISPGGGSDYKDDDDKGGGSDYKDDDDKGGGSDYKDDDDK
3. 146R1 (ligand, Crude CHO-S supernatant, 3x spacer-FLAG tagged) FKIETTPESRYLAQIGDSVSLTCSTTGCESPFFFWRPLLDSPLNGKVTNEGTTSTLTMNPVSFGNEHSYLCTARCESRSLEKGIQVEIYSFPKDPEIHLSGPLEAGKPITVKCSVADVYPFDRLEIDLLKGDHLMKSQEFLEDADRKSLETKSLEVTFTPVIEDIGKVLVCRAKLHIDEMDSVPTVRQAVKELQVYISPGGGSDYKDDDDKGGGSDYKDDDDKGGGSDYKDDDDKGS
4. 146R3 (ligand, Crude CHO-S supernatant, 3x spacer-FLAG tagged) FKIETTPESRYLAQIGDSVSLTCSTTGCESPLFFWRTLLDSPLNGKVTNEGTTSTLTMNPVSFGNEHSYLCTARCESRSLEKGIQVEIYSFPKDPEIHLSGPLEAGKPITVKCSVADVYPFDRLEIDLLKGDHLMKSQEFLEDADRKSLETKSLEVTFTPVIEDIGKVLVCRAKLHIDEMDSVPTVRQAVKELQVYISPGGGSDYKDDDDKGGGSDYKDDDDKGGGSDYKDDDDKGS

1. 1.2
2. 1
3. 1.1
4. 1.3

Please look at the items below and tell me fold weaker binding relative to 146R0 (KD(variant)/KD(146R0)) for each one, in order.
1. 146R8 (ligand, Crude CHO-S supernatant, 3x spacer-FLAG tagged) FKIETTPESRYLAQIGDSVSLTCSTTGCESPLFFWRPLLDSPLNGKVTNEGTTSTLTMNPVSFGNEHSYLCTATCESRKLEKGIQVEIYSFPKDPEIHLSGPLEAGKPITVKCSVADVYPFDRLEIDLLKGDHLMKSQEFLEDADRKSLETKSLEVTFTPVIEDIGKVLVCRAKLHIDEMDSVPTVRQAVKELQVYISPGGGSDYKDDDDKGGGSDYKDDDDKGGGSDYKDDDDKGS
2. 146R19 (ligand, Crude CHO-S supernatant, 3x spacer-FLAG tagged) FKIETTPESRYLAQIGDSVSLTCSTTGCESPFFFWRPQIDSPLNGKVTNEGTTSTLTMNPVSFGNEHSYLCTARCESRKLEKGIQVEIYSFPKDPEIHLSGPLEAGKPITVKCSVADVYPFDRLEIDLLKGDHLMKSQEFLEDADRKSLETKSLEVTFTPVIEDIGKVLVCRAKLHIDEMDSVPTVRQAVKELQVYISPGGGSDYKDDDDKGGGSDYKDDDDKGGGSDYKDDDDKGS
3. 146R17 (ligand, Crude CHO-S supernatant, 3x spacer-FLAG tagged) FKIETTPESRYLAQIGDSVSLTCSTTGCESPFFFWRPLIDSPLNGKVTNEGTTSTLTMNPVSFGNEHSYLCTARCESRKLEKGIQVEIYSFPKDPEIHLSGPLEAGKPITVKCSVADVYPFDRLEIDLLKGDHLMKSQEFLEDADRKSLETKSLEVTFTPVIEDIGKVLVCRAKLHIDEMDSVPTVRQAVKELQVYISPGGGSDYKDDDDKGGGSDYKDDDDKGGGSDYKDDDDKGS

1. 1.7
2. 40
3. 2.8
